molecular target: Calcium/calmodulin-dependent protein kinase kinase 2 (Homo sapiens, UniProt Q96RR4); assay: Affinity Biochemical interaction (Enzymatic activity assay) EUB0000168b CAMKK2
Sequence (Q96RR4 whole entry): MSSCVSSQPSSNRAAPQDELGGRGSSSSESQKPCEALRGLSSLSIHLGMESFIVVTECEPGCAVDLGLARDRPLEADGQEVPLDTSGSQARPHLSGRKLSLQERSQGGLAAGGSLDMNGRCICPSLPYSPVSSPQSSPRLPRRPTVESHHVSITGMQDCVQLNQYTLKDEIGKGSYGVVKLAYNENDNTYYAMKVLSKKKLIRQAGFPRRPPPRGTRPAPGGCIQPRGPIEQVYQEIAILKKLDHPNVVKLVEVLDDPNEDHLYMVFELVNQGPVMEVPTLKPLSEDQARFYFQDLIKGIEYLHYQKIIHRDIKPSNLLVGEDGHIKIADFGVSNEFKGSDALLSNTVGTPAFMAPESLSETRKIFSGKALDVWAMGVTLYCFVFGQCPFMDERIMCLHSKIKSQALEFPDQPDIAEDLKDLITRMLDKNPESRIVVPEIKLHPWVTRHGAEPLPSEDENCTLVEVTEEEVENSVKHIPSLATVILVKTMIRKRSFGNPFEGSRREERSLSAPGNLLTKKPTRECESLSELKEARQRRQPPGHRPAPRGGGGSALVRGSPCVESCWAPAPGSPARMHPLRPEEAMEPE
pIC50: −log10 of the molar value.
experimental_readout: pIC50

What value of pIC50 has been recorded for this entry: O=C(O)c1ccc(-c2coc3ncc(-c4ccccc4)cc23)cc1Cl
< 4.57

* * *

molecular target: Oxidized purine nucleoside triphosphate hydrolase (Homo sapiens); assay: Affinity Biochemical interaction (PPiLight Biochemical Assay (full-length human NUDT1)) EUB0000587a NUDT1
experimental_readout: IC50

Param item = CCNC(=O)c1cc2c(N3CCOC[C@@H]3C)ccnc2n1C ; retrieve measured IC50.
> 20 µM

* * *

target: Tyrosine-protein kinase Mer (Homo sapiens)
experimental_readout: IC50

Reported IC50, molecule CCOc1cn(-c2ccc(F)cc2C)nc1C(=O)Nc1ccc(Oc2ccnc3cc(OC)c(OC)cc23)c(F)c1 : ____
5 nM

* * *

molecular target: Hepatocyte growth factor receptor (Homo sapiens, UniProt P08581); test: Affinity Biochemical interaction (Homogeneous Time Resolved Fluorescence Assay) EUB0000293b MET
pIC50: −log10 of the molar value.
experimental_readout: pIC50

# lookup: pIC50 of CC1=C(C#N)C(c2ccc3[nH]nc(C)c3c2)C(C#N)=C(C)N1 [BAY-474]
> 9.00

* * *

molecular target: Cannabinoid receptor 1 (Homo sapiens, UniProt P21554); experiment: Affinity Biochemical interaction (Radioligand binding assay (CNR1, inverse agonism)) EUB0000316b CNR1
Sequence (P21554 whole entry): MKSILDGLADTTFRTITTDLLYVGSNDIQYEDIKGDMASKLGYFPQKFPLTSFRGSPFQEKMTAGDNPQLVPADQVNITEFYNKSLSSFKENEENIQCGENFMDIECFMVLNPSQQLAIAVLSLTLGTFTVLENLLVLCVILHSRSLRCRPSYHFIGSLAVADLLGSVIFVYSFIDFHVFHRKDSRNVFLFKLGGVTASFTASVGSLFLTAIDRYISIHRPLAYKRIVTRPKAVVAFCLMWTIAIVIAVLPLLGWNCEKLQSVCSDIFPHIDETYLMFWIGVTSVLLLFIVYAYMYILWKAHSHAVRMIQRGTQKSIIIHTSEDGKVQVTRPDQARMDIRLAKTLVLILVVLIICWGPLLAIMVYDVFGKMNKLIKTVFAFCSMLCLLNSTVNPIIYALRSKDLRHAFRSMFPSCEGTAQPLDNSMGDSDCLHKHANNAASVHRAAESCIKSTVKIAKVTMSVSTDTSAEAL
experimental_readout: pIC50
API: returns pIC50 as number; meaning -log10 of concentration in mol/L.

Reported pIC50 for CC(=O)c1c(NS(C)(=O)=O)c2cc(-c3ccc(Cl)cc3)c(-c3ccc(Cl)cc3Cl)nc2n(C)c1=O : what is it?
7.49

* * *

molecular target: Alpha-1D adrenergic receptor (Homo sapiens, UniProt P25100); assay: Affinity Biochemical interaction (Binding assay) EUB0000300bCl ADRA1D
Sequence (P25100 whole entry): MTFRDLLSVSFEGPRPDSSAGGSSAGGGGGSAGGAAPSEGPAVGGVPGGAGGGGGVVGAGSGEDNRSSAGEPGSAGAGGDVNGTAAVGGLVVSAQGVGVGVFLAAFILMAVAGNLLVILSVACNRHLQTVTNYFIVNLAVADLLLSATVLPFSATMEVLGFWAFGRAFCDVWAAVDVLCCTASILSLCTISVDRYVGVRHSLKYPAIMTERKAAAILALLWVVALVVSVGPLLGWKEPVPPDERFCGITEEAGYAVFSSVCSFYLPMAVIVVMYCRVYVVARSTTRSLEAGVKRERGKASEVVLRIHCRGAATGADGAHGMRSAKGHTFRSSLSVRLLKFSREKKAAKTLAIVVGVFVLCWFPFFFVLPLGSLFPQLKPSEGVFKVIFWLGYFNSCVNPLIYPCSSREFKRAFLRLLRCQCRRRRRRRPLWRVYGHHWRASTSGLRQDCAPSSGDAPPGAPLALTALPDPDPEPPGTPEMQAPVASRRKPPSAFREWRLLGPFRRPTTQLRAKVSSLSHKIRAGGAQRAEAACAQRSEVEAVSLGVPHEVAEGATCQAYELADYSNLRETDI
experimental_readout: pKi
pKi is a log-scale quantity: -log10 of the concentration expressed in molar.

So what does the record say about pKi for C[C@@H](c1cccc(CN)c1)n1cc(Cl)cc(C(N)=O)c1=N ?
8.80

* * *

target: Fatty-acid amide hydrolase 1 (Homo sapiens, UniProt O00519); assay: Affinity Biochemical interaction (Binding assay) EUB0000540a FAAH; set-up: mode of action Negative control for PF-04457845, recommended concentration 1 uM
Sequence (O00519 whole entry): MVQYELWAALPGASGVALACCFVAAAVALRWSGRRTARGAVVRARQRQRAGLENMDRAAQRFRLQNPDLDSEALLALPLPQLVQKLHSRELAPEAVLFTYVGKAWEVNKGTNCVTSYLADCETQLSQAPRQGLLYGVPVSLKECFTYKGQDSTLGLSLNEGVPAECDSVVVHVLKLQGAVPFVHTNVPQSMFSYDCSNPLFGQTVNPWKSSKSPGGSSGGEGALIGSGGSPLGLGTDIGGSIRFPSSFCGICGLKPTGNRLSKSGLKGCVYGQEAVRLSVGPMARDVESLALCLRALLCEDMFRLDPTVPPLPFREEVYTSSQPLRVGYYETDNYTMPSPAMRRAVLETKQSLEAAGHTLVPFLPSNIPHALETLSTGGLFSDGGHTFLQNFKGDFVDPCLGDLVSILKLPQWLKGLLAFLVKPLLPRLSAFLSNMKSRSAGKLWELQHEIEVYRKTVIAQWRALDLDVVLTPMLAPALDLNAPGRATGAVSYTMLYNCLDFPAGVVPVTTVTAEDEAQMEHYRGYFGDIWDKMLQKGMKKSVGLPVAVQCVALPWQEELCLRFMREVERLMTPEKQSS
experimental_readout: IC50

Need IC50 of O=C(Nc1cccnn1)N1CC(C/C=C/c2cncc(Oc3ccc(C(F)(F)F)cn3)n2)C1 , thanks.
> 100 µM

* * *

target: Angiopoietin-1 receptor (Homo sapiens, UniProt Q02763); assay: Affinity Biochemical interaction (KdELECT (DiscoverX)) EUB0000703a TEK
experimental_readout: Kd

Bench note: what Kd did Cc1cc(NC(=O)c2cccc(S(F)(F)(F)(F)F)c2)cc(-n2ccn3nc(-c4cccnc4)cc23)c1 show?
> 20 µM

* * *

target: NT-3 growth factor receptor (Homo sapiens, UniProt Q16288); experiment: Affinity Biochemical interaction (Radiometric assay (10 µM ATP, Reaction Biology)) EUB0000156b NTRK3
Sequence (Q16288 whole entry): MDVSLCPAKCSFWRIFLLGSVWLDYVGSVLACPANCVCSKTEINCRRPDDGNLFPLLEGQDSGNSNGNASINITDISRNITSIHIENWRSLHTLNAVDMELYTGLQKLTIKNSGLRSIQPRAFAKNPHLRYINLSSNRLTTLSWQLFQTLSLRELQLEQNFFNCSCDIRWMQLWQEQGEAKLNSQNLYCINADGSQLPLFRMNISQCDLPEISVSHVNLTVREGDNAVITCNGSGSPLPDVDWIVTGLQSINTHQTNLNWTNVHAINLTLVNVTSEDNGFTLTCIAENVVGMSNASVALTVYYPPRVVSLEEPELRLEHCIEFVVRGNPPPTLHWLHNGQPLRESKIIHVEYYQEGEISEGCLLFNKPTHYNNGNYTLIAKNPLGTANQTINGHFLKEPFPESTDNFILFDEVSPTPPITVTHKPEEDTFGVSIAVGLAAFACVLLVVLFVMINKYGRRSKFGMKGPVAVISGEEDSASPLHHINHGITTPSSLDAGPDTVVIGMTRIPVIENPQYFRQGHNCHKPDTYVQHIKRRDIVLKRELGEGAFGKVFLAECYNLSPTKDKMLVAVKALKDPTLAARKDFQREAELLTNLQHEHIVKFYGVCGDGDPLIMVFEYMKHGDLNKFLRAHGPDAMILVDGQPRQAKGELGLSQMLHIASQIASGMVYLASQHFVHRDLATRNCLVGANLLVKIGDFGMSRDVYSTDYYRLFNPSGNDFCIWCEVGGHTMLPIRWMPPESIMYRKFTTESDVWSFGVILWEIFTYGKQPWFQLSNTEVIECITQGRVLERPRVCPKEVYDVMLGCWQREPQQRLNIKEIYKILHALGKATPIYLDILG
experimental_readout: pIC50
A value of pIC50 is the negative decimal logarithm of a concentration given in moles per litre.

# returns recorded pIC50 (system: NT-3 growth factor receptor (Homo sapiens, UniProt Q16288)) for CN1CCN(Cc2cc(NC(=O)c3ccc4c(c3)CN(c3ccccc3)CC4)cc(C(F)(F)F)c2)CC1
5.09

* * *

biological target: 5'-AMP-activated protein kinase catalytic subunit alpha-1 (Homo sapiens); assay: Affinity Biochemical interaction (Biochemical PRKAA1 assay (10 µM ATP)) EUB0000707a PRKAA1; parameters: mode of action Negative control for BAY-3827, recommended concentration 100 nM
Sequence (Q13131 whole entry): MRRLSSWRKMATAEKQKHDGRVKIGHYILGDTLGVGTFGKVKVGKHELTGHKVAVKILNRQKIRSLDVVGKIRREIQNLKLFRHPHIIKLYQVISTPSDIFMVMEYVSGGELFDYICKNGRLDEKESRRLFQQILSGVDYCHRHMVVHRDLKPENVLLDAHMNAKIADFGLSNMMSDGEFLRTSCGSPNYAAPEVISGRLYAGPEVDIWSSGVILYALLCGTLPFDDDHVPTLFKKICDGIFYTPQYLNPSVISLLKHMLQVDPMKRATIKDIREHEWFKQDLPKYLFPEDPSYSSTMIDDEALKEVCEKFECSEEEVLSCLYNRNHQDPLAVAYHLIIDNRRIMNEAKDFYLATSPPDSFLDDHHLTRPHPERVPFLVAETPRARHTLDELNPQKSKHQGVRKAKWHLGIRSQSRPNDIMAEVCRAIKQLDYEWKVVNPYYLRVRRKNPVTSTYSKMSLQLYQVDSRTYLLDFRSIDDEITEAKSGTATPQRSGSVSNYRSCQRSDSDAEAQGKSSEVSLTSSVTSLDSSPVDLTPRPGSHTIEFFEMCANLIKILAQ
pIC50: −log10 of the molar value.
experimental_readout: pIC50

Report pIC50 for CC1=C(C#N)C(c2ccc3c(c2)c(NC(=O)c2ccccc2C)nn3C)C(C#N)=C(C)N1 please.
< 4.70

* * *

molecular target: Histone acetyltransferase p300 (Homo sapiens, UniProt Q09472); test: Affinity Biochemical interaction (TR-FRET assay (BHC domains)) EUB0000326a EP300
experimental_readout: IC50

Suppose we examine the molecule CNC(=O)Nc1ccc2c(c1)[C@@]1(CC2)OC(=O)N(CC(=O)N(Cc2ccc(F)cc2)[C@@H](C)C(F)(F)F)C1=O [A-486] ; what IC50 value has been reported?
> 10 µM

* * *

biological target: Protein AF-9 (Homo sapiens, UniProt P42568); experiment: Affinity Biochemical interaction (HTRF-based inhibition assay) EUB0000732a MLLT3; design: mode of action Negative control for PFI-6, recommended concentration 1 uM
pIC50: −log10 of the molar value.
experimental_readout: pIC50

Field request: pIC50 | item: CN(C)C(=O)c1ccc(-c2cc(C(=O)N(C)C3CCCC3)no2)cc1O
< 4.52

* * *

biological target: Transient receptor potential cation channel subfamily M member 8 (Homo sapiens); test: Affinity Biochemical interaction (Enzymatic assay) EUB0000546a TRPM8
pIC50: −log10 of the molar value.
experimental_readout: pIC50

Entry under review: C[C@H](c1ccc(F)cc1)N(Cc1ccc(Cl)c(C(=O)O)c1)C(=O)c1cnc2ccccc2c1 [PF-05257137] . Reported pIC50?
< 5.00

* * *

target: Protein ENL (Homo sapiens); experiment: Affinity Biochemical interaction (AlphaScreen assay) EUB0000283b MLLT1; parameters: mode of action Inhibitor, recommended concentration 1 uM
Sequence (Q03111 whole entry): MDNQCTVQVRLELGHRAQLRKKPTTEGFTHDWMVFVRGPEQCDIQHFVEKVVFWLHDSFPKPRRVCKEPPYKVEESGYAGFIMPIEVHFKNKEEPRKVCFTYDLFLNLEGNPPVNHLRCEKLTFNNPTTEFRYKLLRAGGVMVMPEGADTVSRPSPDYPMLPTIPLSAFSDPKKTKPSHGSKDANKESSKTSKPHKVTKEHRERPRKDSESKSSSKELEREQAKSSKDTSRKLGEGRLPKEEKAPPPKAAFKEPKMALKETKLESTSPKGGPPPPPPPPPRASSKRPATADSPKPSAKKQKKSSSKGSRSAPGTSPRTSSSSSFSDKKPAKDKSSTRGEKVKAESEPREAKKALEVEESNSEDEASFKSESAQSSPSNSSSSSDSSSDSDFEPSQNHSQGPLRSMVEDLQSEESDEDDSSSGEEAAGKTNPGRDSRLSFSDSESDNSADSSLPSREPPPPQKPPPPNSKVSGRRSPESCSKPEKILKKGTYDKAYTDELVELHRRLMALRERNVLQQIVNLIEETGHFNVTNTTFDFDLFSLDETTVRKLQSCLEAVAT
experimental_readout: pIC50
pIC50 is a log-scale quantity: -log10 of the concentration expressed in molar.

GET /values?readout=pIC50&item= C[C@H]1CCCN1Cc1nc2cc(NC(=O)c3ccc4cnccc4c3)ccc2[nH]1
6.82

* * *

target: Histone acetyltransferase p300 (Homo sapiens)
experimental_readout: Kd (nM)
Give the number; nM is assumed, so skip it.

Field: Kd (Histone acetyltransferase p300 (Homo sapiens)). Entry: CCC(=O)N1CCOc2c(cc(-c3ccc(OC)c(OC)c3)cc2OC[C@H]2CCCN(C)C2)C1
625

* * *

target: RAC-alpha serine/threonine-protein kinase (Homo sapiens); assay: Affinity Biochemical interaction (HTFR assay) EUB0000721a AKT1
Sequence (P31749 whole entry): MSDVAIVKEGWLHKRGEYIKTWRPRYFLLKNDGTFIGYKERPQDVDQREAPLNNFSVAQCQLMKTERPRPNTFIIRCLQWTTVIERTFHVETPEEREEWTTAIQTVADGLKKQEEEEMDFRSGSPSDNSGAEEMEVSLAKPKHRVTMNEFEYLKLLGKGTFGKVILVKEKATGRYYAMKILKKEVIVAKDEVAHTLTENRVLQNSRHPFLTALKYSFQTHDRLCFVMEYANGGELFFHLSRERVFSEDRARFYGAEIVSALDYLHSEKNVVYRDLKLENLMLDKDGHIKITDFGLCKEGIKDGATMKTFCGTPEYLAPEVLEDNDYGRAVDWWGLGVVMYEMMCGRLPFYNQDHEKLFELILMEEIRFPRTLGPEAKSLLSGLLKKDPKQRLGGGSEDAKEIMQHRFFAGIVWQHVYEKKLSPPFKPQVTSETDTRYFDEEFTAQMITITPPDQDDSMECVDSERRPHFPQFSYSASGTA
experimental_readout: pIC50
Expect pIC50 as a plain number equal to -log10 of the molar concentration.

Any idea what pIC50 was measured for C=CC(=O)Nc1ccc2[nH]c(=O)n(C3CCN(C(=O)c4ccc(-c5nc6cc[nH]c(=O)c6cc5-c5ccccc5)cc4)CC3)c2c1 ?
5.04

* * *

target: Epithelial discoidin domain-containing receptor 1 (Homo sapiens); experiment: Affinity Biochemical interaction (Radiometric assay (10 µM ATP, Reaction Biology)) EUB0000156b DDR1
experimental_readout: IC50
Answer with the figure and its unit, nothing else.

What does the record list as IC50 for CN1CCN(Cc2cc(NC(=O)c3ccc4c(c3)CN(c3ccccc3)CC4)cc(C(F)(F)F)c2)CC1 ?
1730 nM

* * *

Molecular target: UniProt:P42568
Sequence (P42568 whole entry): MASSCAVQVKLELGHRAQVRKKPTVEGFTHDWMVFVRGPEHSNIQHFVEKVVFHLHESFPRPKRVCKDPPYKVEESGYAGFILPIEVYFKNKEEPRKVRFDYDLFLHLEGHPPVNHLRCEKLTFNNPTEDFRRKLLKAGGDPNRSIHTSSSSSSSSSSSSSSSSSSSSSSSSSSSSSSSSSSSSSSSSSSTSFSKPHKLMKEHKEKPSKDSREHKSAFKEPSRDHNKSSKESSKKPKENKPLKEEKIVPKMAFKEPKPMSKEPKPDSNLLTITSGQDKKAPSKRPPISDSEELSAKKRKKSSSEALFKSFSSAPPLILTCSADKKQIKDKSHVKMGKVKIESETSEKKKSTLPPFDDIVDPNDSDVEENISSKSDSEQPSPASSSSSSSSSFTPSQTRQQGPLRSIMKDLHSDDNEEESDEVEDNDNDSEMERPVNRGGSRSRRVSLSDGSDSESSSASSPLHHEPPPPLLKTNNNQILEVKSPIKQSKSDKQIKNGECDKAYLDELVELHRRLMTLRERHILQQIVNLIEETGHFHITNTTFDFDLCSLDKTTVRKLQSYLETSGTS
experimental_readout: pIC50
The scale used: pIC50 is minus the common logarithm of the concentration in molar units.

What value of measured pIC50 is listed for CN(C)C(=O)c1ccc(-c2cc(C(=O)N[C@@H]3CCc4ccccc43)no2)cc1O ?
6.80

* * *

molecular target: Dual specificity protein kinase CLK2 (Homo sapiens); assay: Affinity Biochemical interaction (NanoBRET assay (in HEK293T cells)) EUB0000009b CLK2
experimental_readout: Ki

Please give the measured Ki for this molecule: Cn1cc(-c2ccc3occ(-c4ccccc4-c4ccccc4)c3n2)cn1
> 10 µM

* * *

molecular target: AP2-associated protein kinase 1 (Homo sapiens, UniProt Q2M2I8); test: Affinity Biochemical interaction (Competition binding assay) EUB0000166b AAK1
experimental_readout: Kd (µM)
Return type: number; implicit unit µM.

Given the entry CC(C)C(=O)Nc1n[nH]c2cc(-c3cccc(NS(=O)(=O)C4CC4)c3)ccc12 , report its measured Kd.
8.8
